Data provenance is ChEMBL document CHEMBL4765384.

test: Stability in human plasma assessed as parent compound remaining after 2 hrs; format: ADME, cell-free; conditions: read-out: Stabilty
METRIC NAME: remaining at 2 h

Qu. Name the reported remaining at 2 h value associated with the compound Nc1ccc(-c2ccc3ncc(-c4nnco4)c(NCCCn4ccnc4)c3c2)cc1
Ans. 91.3%

Qu. Name the reported remaining at 2 h value associated with the compound Cc1ccc(-c2ccc3ncc(-c4nnco4)c(NCCCn4ccnc4)c3c2)cc1
Ans. 90.8%

----------
test: Stability in human liver microsomes assessed as parent compound remaining after 60 mins by LC-MS/MS analysis; format: ADME, Microsome; conditions: read-out: Stabilty
METRIC NAME: remaining at 1 h (%)
Dear colleague, please return just the value in %, with no unit written.

Qu. Name the reported remaining at 1 h value associated with the molecule Cc1ccc(-c2ccc3ncc(-c4nnco4)c(NCCCn4ccnc4)c3c2)cc1
Ans. 0

Qu. Name the reported remaining at 1 h value associated with the molecule Nc1ccc(-c2ccc3ncc(-c4nnco4)c(NCCCn4ccnc4)c3c2)cc1
Ans. 53.7

Qu. Name the reported remaining at 1 h value associated with the molecule COc1ccc(-c2ccc3ncc(-c4nnco4)c(NCCCn4ccnc4)c3c2)cc1
Ans. 1.68

----------
Please provide measured IC50 for the entries that follow.
target: DNA topoisomerase 1 (Homo sapiens); experiment: Inhibition of recombinant human Top1 expressed in baculovirus infected sf9 insect cells using supercoiled pBS (SK+) DNA as substrate incubated for 30 mins by ethidium bromide staining based agarose gel electrophoresis analysis
Sequence (P11387 whole entry): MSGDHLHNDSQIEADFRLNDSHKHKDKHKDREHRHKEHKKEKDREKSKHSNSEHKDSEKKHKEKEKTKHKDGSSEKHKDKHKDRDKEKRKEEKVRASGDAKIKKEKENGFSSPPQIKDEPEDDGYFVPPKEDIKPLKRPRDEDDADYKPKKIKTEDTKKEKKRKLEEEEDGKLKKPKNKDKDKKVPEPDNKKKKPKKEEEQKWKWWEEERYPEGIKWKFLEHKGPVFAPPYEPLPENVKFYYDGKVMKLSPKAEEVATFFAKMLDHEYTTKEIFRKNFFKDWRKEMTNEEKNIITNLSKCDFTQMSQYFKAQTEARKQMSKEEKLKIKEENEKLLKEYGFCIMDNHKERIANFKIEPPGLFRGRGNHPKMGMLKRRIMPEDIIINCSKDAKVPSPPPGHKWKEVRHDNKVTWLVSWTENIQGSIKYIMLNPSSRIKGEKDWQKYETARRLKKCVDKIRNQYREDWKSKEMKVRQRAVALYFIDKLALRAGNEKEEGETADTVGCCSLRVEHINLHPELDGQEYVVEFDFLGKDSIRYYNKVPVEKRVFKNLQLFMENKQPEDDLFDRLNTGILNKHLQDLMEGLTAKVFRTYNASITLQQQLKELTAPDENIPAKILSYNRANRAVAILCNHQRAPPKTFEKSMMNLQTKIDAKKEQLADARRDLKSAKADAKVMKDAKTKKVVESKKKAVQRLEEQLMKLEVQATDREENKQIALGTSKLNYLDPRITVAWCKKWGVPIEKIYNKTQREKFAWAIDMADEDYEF

Qu. Name the reported IC50 value associated with the compound COc1ccc(-c2ccc3ncc(-c4nnco4)c(NCCCn4cccc4)c3c2)cc1
Ans. > 10 µM

Qu. Name the reported IC50 value associated with the compound COc1ccc(-c2ccc3ncc(-c4nnco4)c(NCCCN4CCCC4)c3c2)cc1
Ans. > 10 µM

----------
test system: MCF7; experiment: Cytotoxicity against human MCF7 cells assessed as reduction in cell viability after 48 hr by MTT assay; type: functional, cell-based; conditions: MCF7, 48 h
METRIC NAME: IC50 (µM)
Dear colleague, please return just the value in µM, with no unit written.

Qu. Name the reported IC50 value associated with the compound Nc1ccc(-c2ccc3ncc(-c4nnco4)c(NCCCn4ccnc4)c3c2)cc1
Ans. 2.5

----------
assay: Intrinsic clearance in human liver microsomes after 60 mins in presence of cofactor by LC-MS/MS analysis; type: ADME, Microsome; conditions: 1 h
METRIC NAME: CLH (µL/min/mg)
Dear colleague, please return just the value in µL/min/mg, with no unit written.

Qu. Name the reported CLH value associated with the compound Nc1ccc(-c2ccc3ncc(-c4nnco4)c(NCCCn4ccnc4)c3c2)cc1
Ans. 10

Qu. Name the reported CLH value associated with the compound Cc1ccc(-c2ccc3ncc(-c4nnco4)c(NCCCn4ccnc4)c3c2)cc1
Ans. 89.3

Qu. Name the reported CLH value associated with the compound COc1ccc(-c2ccc3ncc(-c4nnco4)c(NCCCn4ccnc4)c3c2)cc1
Ans. 69.7

----------
assay: Half life in human liver microsomes by LC-MS/MS analysis; assay type: ADME, Microsome
Please provide measured half-life for the entries that follow.
Dear colleague, please return just the value in min, with no unit written.

Qu. Name the reported half-life value associated with the compound Cc1ccc(-c2ccc3ncc(-c4nnco4)c(NCCCn4ccnc4)c3c2)cc1
Ans. 7.77

Qu. Name the reported half-life value associated with the compound Nc1ccc(-c2ccc3ncc(-c4nnco4)c(NCCCn4ccnc4)c3c2)cc1
Ans. 69.1

Qu. Name the reported half-life value associated with the compound COc1ccc(-c2ccc3ncc(-c4nnco4)c(NCCCn4ccnc4)c3c2)cc1
Ans. 9.94
